# System: ragweed
# Measurement protocol: Test C preemergence
# Type: in vivo, Ambrosia artemisiifolia
# Particulars: 500 g ai/ha, preemergence; 0 to 100 scale (0 no effect, 100 complete control)
Measured attribute: Ragweed plant response rating
// response body must contain only the number

// sample Cc1ncnn1-c1cc(C(=O)N2CC(C(F)(F)F)Oc3c(Cl)cccc32)ccn1 (racemic) , its Ragweed plant response rating was 0

Form field Ragweed plant response rating, entry Cc1ccc(-n2cnc(C3(C#N)CCC3)n2)cc1C(=O)N1C[C@H](C)Oc2c(Cl)cccc21 : 50

Measured Ragweed plant response rating, CC(C)c1ncn(-c2cc(O)c(O)c(C(=O)N3C[C@H](C)Oc4c(Cl)cccc43)c2)n1 : 30

Form field Ragweed plant response rating, entry COC[C@H]1CN(C(=O)c2cc(-n3cnc(C(C)(C)C)n3)cc3c2OCCO3)c2cccc(Cl)c2O1 : 100

Field Ragweed plant response rating (entry CCOCC1CN(C(=O)c2cc(-n3cnc(CC)n3)ccc2OC)c2cccc(Cl)c2O1 (centres unmarked) ) reads 80

Briefly, Ragweed plant response rating measured for CCOC[C@H]1CN(C(=O)c2cc(-n3cnc(C(C)C)n3)ccc2C)c2cccc(Cl)c2O1 : 100

Item: Cc1ccc(-n2cnc(C(C)C)n2)cc1C(=O)N1CC(C(F)(F)F)Oc2c(Cl)cccc21 (single isomer, unassigned) [Compound 292] | Ragweed plant response rating: 20

The value of Ragweed plant response rating measured for the compound CC(C)c1ncn(-c2cc(C(=O)N3C[C@H](C)Oc4c(Cl)cccc43)cnn2)n1 turned out to be 90

// recorded Ragweed plant response rating for C[C@H]1CN(C(=O)c2cccc(-n3cnc(OS(C)(=O)=O)n3)c2)c2cccc(Cl)c2O1 : 0

Lab note: measured Ragweed plant response rating of Cc1cccc2c1O[C@@H](C)CN2C(=O)c1cccc(-n2nccn2)c1 was 0

// sample COC(C)c1ncn(-c2ccc(C)c(C(=O)N3CC(C)Oc4c(Cl)cccc43)c2)n1 (mixture of isomers) , its Ragweed plant response rating was 100
